- Tested on: Wolbachia pipientis
- assay_name: Anti-Wolbachia Cell-Based Screen
- Assay type: functional
- Set-up: scale not given: in the data most compounds retested in dose-response had high values
- condition_parameters: 5 µM
About 13,000 (27%) of roughly 48,000 compounds showed an effect of 50% or more. Some of the results follow.
hey, just use Satisfied if measured Percent Effect is less than 90%, otherwise Not satisfied

>>> classification("CN(C)Cc1cc(=O)n2c(n1)CN(C(=O)c1ccc[nH]1)CCC2.O=C(O)C(F)(F)F")
"Not satisfied"
>>> classification("Cn1c(NC(=O)CNC(=O)C2CCCC2)nc2cc(Cl)ccc21")
"Satisfied"
>>> classification("CC(C)N(C)Cc1cc(=O)n2c(n1)CN(C(=O)c1ccc[nH]1)CCC2")
"Not satisfied"
>>> classification("CC(C)N(C)Cc1cncc2c1CCN(C(=O)c1ccc[nH]1)C2.Cl.Cl")
"Satisfied"

----------
- Tested on: Wolbachia pipientis
- assay_name: Anti-Wolbachia Cell-Based Screen
- Type: functional
- Design: scale not given: in the data most compounds retested in dose-response had high values
- condition_parameters: 5 µM
Hit rate of the full screen: of about 48,000 compounds, about 13,000 (27%) showed an effect of 50% or more. This is one part of the list.
test_readout: Percent Effect

>>> meas_value("CCn1ccc(-c2cc(NCCCOc3cccc(C)c3)nc(C)n2)n1")
"179.6%"
>>> meas_value("CCn1ccc(-c2cc(NCCCOc3ccccc3C)nc(C)n2)n1")
"161.9%"
>>> meas_value("CN(Cc1cncs1)C1CCN(C(=O)OC(C)(C)C)CC1")
"3.797%"
>>> meas_value("CS(=O)(=O)N1CCN(C(=O)c2cnn3c2OCCC3)CC1")
"124.7%"
>>> meas_value("Cc1ccc2nc(CNCCCOc3ccccc3)cc(O)c2c1")
"-20.67%"
>>> meas_value("CC(C)(C)OC(=O)N1CCCN(c2nnc(C3CC3)s2)CC1")
"1.365%"
>>> meas_value("COc1ccc(OCCNCCn2cccn2)cc1")
"-1.614%"
>>> meas_value("COC(=O)C(CNC(=O)Nc1cn[nH]c1)Cc1cccc(C)c1 (stereo unspecified)")
"-11.43%"
>>> meas_value("CCOc1ccc(CNCc2ccc(C(=O)NC)cc2)cc1OCC")
"-3.882%"
>>> meas_value("CS(=O)(=O)N1CCN(C(=O)c2[nH]c3ccc(Cl)cc3c2Cl)CC1")
"-22.4%"
>>> meas_value("CC(=O)c1ccc(N2CCN(C(=O)c3cnn4c3OCCC4)CC2)cc1")
"108.1%"

----------
- Tested on: Wolbachia pipientis
- assay_name: Anti-Wolbachia Cell-Based Screen
- Format: functional
- Parameters: scale not given: in the data most compounds retested in dose-response had high values
- condition_parameters: 5 µM
In all, about 48,000 compounds went through this assay and about 13,000 (27%) showed an effect of 50% or more. The list shows a part of the results.
Some compounds, each annotated with its measured Percent Effect.
test_readout: Percent Effect (%)

>>> meas_value("CC(=O)c1cccc(S(=O)(=O)NCC(C)(O)c2cccs2)c1 (stereo unspecified)")
1.748
>>> meas_value("Cc1nc(CN2C[C@@H]3CN(C(=O)C4(C#N)CC4)C[C@@H]3C2=O)cs1.O=C(O)C(F)(F)F")
-7.986
>>> meas_value("Oc1cc(CNCCCN2CCCC2)nc2ccc(F)cc12")
15.84
>>> meas_value("Cc1ccc2nc(C3CCN(CC(C)C)CC3)nc(O)c2c1")
129.6
>>> meas_value("C=C(C)CNC(=O)C1CCC(=O)N(C2CCCC2)C1 (stereo unspecified)")
15.65
>>> meas_value("COCCn1/c(=N\\C(=O)CN(C)S(C)(=O)=O)sc2cc(OC)ccc21")
-16.36

Values compiled from ChEMBL document CHEMBL3988442.
